Target: recombinant human transglutaminase 2 (Homo sapiens, UniProt P21980)
Sequence (P21980 1-687): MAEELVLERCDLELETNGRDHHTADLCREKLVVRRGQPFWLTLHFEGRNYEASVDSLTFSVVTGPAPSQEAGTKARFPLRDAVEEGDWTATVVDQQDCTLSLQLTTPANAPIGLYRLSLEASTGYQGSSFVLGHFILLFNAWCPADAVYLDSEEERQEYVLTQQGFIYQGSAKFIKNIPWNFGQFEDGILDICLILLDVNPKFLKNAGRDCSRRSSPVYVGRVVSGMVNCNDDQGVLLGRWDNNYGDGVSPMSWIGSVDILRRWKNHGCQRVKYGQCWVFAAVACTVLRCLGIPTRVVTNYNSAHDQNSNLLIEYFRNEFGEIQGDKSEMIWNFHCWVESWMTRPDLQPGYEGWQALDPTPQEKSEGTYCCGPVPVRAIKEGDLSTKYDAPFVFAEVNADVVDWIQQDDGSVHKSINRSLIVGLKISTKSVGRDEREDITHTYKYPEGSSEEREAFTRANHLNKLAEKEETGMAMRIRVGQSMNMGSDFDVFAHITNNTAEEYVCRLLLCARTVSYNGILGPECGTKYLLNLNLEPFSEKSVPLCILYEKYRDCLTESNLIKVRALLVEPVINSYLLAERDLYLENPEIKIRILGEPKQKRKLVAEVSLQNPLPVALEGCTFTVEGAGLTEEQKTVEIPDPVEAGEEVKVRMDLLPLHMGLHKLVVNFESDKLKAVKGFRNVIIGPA
Assay: Transglutaminase assay (dansylcadaverine incorporation into dimethylcasein, DCC-assay)
Settings: recombinant human TG2 10 nM, dansylcadaverine/dimethylcasein, 37° C.
pIC50: −log10 of the molar value.
Reported Endpoint: pIC50

* COC(=O)/C=C/CC[C@H](NC(=O)c1oc2ccccc2c1Cl)C(=O)Nc1cccn(CC(=O)NC2C3CC4CC(C3)CC2C4)c1=O (stereo partly shown) | > 7.60
* COC(=O)/C=C/CC[C@H](NC(=O)c1sc(C(F)(F)F)nc1C)C(=O)Nc1cccn(CC(=O)NC23CC4CC(C)(CC(C)(C4)C2)C3)c1=O | > 7.60
* CCc1c(C(=O)N[C@@H](CC/C=C/C(=O)NC2CCCC2)C(=O)Nc2cccn(CC(=O)NC34CC(C3)C4)c2=O)oc2ccccc12 | 6.60 to 7.60
* COC(=O)/C=C/CC[C@H](NC(=O)c1snnc1C)C(=O)Nc1cccn(CC(=O)N[C@H]2C[C@H]3CC[C@]2(C)C3(C)C)c1=O | > 7.60
* COC(=O)/C=C/CC[C@H](NC(=O)c1cc2ccccc2[nH]1)C(=O)Nc1cccn(CC(=O)NC2C3CC4CC(C3)CC2C4)c1=O (stereo partly shown) | > 7.60
* COC(=O)/C=C/CC[C@H](NC(=O)c1cc(Cl)sc1Cl)C(=O)Nc1cccn(CC(=O)NC23CC4CC(C)(CC(C)(C4)C2)C3)c1=O | > 7.60
* COC(=O)/C=C/CC[C@H](NC(=O)c1oc2ccccc2c1C)C(=O)Nc1cccn(CC(=O)NCC23CC4CC(CC(C4)C2)C3)c1=O | 6.60 to 7.60
* O=C(/C=C/CC[C@H](NC(=O)c1nc(Cl)sc1Cl)C(=O)Nc1cccn(CC(=O)NC23CC(C2)C3)c1=O)NCc1ccccc1 | 5.82 to 6.60
* COC(=O)/C=C/CC[C@H](NC(=O)c1cnc(C(C)C)o1)C(=O)Nc1cccn(CC(=O)NC23CCC(C2)C3)c1=O | 6.60 to 7.60
* COC(=O)/C=C/CC[C@H](NC(=O)C1Cc2ccccc2C1)C(=O)Nc1cccn(CC(=O)NC2C3CC4CC(C3)CC2C4)c1=O (stereo partly shown) | > 7.60
* COC(=O)/C=C/CC[C@H](NC(=O)c1cccnc1)C(=O)Nc1cccn(CC(=O)NC2C3CC4CC(C3)CC2C4)c1=O (stereo partly shown) | > 7.60
* O=C(/C=C/CC[C@H](NC(=O)c1ccc2c(c1)NCCC2)C(=O)Nc1cccn(CC(=O)NC23CC(C2)C3)c1=O)NC1CCCCC1 | 5.82 to 6.60
* COC(=O)/C=C/CC[C@H](NC(=O)c1oc2ccccc2c1C)C(=O)Nc1cccn(CC(=O)NC23CC4CC(C2)CC(C(=O)OC)(C4)C3)c1=O | 6.60 to 7.60
* COC(=O)/C=C/CC[C@H](NC(=O)c1oc2ccccc2c1C)C(=O)Nc1cccn(CC(=O)NC2C3CC4CC2CC(Cl)(C4)C3)c1=O (stereo partly shown) | > 7.60
* CCN(CC)C(=O)/C=C/CC[C@H](NC(=O)c1coc(C(C)=O)n1)C(=O)Nc1cccn(CC(=O)NC23CC(C2)C3)c1=O | 5.82 to 6.60
* COC(=O)/C=C/CC[C@H](NC(=O)c1sc(Br)cc1Br)C(=O)Nc1cccn(CC(=O)NC2C3CC4CC(C3)CC2C4)c1=O (stereo partly shown) | > 7.60
* COC(=O)/C=C/CC[C@H](NC(=O)c1oc2ccccc2c1C)C(=O)Nc1cccn(CC(=O)N[C@@H]2C[C@@H]3CC[C@H]2C3)c1=O | > 7.60
* COC(=O)/C=C/CC[C@H](NC(=O)c1cccnc1)C(=O)Nc1cccn(CC(=O)NCCc2ccccc2)c1=O [Ref. 5, reference compound] | 5.82 to 6.60
* CCCCCNC(=O)/C=C/CC[C@H](NC(=O)c1cn2ccsc2n1)C(=O)Nc1cccn(CC(=O)NC23CC(C2)C3)c1=O | 5.82 to 6.60
* COC(=O)/C=C/CC[C@H](NC(=O)c1cn(C)nn1)C(=O)Nc1cccn(CC(=O)NC2C3CC4CC(C3)CC2C4)c1=O (stereo partly shown) | 6.60 to 7.60
* COC(=O)/C=C/CC[C@H](NC(=O)c1nc(C2(C)CC2)no1)C(=O)Nc1cccn(CC(=O)NC2C3CC4CC2CC(C(N)=O)(C4)C3)c1=O (stereo partly shown) | 5.82 to 6.60
* COC(=O)/C=C/CC[C@H](NC(=O)c1nncs1)C(=O)Nc1cccn(CC(=O)NC23CC(C2)C3)c1=O | 6.60 to 7.60
* COC(=O)/C=C/CC[C@H](NC(=O)c1cc(Br)c(Br)s1)C(=O)Nc1cccn(CC(=O)NC2C3CC4CC(C3)CC2C4)c1=O (stereo partly shown) | > 7.60
* CCN(CC)C(=O)/C=C/CC[C@H](NC(=O)[C@@H]1CN2CCN1CC2)C(=O)Nc1cccn(CC(=O)NC23CC(C2)C3)c1=O | 5.82 to 6.60
* COC(=O)/C=C/CC[C@H](NC(=O)c1cncnc1C)C(=O)Nc1cccn(CC(=O)NC2C3CC4CC2CC(C(=O)O)(C4)C3)c1=O (stereo partly shown) | 5.82 to 6.60

====

experiment: Caco-2 permeability assay (CacoReady kit); format: in vitro ADME; conditions: human
Reported Endpoint: Papp

- COC(=O)/C=C/CC[C@H](NC(=O)c1csnn1)C(=O)Nc1cccn(CC(=O)NC23CC(C2)C3)c1=O: < 1 ×10⁻⁶ cm/s
- COC(=O)/C=C/CC[C@H](NC(=O)c1c[nH]cn1)C(=O)Nc1cccn(CC(=O)NC2C3CC4CC(C3)CC2C4)c1=O (stereo partly shown): < 1 ×10⁻⁶ cm/s
- COC(=O)/C=C/CC[C@H](NC(=O)c1cnc(C(C)C)o1)C(=O)Nc1cccn(CC(=O)NC23CCC(C2)C3)c1=O: 1 to 10 ×10⁻⁶ cm/s
- Cc1cc(C(=O)N[C@@H](CC/C=C/C(=O)Nc2ccccc2)C(=O)Nc2cccn(CC(=O)NC34CC(C3)C4)c2=O)c(C)o1: 1 to 10 ×10⁻⁶ cm/s

====

experiment: Log D shake flask method (octanol / PBS pH 7.4, HPLC); type: physicochemical; conditions: octanol/phosphate-buffered saline (PBS); octanol / PBS pH 7.4, shake flask
Quick reference for logD among some compounds
Reported Endpoint: logD

• COC(=O)/C=C/CC[C@H](NC(=O)c1nncs1)C(=O)Nc1cccn(CC(=O)NC23CC(C2)C3)c1=O = < 1
• COC(=O)/C=C/CC[C@H](NC(=O)c1oc2ccccc2c1C)C(=O)Nc1cccn(CC(=O)N[C@H]2C[C@H]3C[C@@H]([C@@H]2C)C3(C)C)c1=O = 3 to 5
• COC(=O)/C=C/CC[C@H](NC(=O)c1sc(C(F)(F)F)nc1C)C(=O)Nc1cccn(CC(=O)N[C@@H]2C[C@@H]3CC[C@H]2C3)c1=O = 1 to 3
• COC(=O)/C=C/CC[C@H](NC(=O)c1cccnc1)C(=O)Nc1cccn(CC(=O)NCCc2ccccc2)c1=O [Ref. 5, reference compound] = 1 to 3
• COC(=O)/C=C/CC[C@H](NC(=O)c1oc2ccccc2c1C)C(=O)Nc1cccn(CC(=O)N(C)C2C3CC4CC(C3)CC2C4)c1=O (stereo partly drawn) = 3 to 5
• COC(=O)/C=C/CC[C@H](NC(=O)c1oc2ccccc2c1C)C(=O)Nc1cccn(CC(=O)NC23CC4CC(C2)CC(C(=O)OC)(C4)C3)c1=O = 3 to 5
